Measured values drawn from ChEMBL document CHEMBL3433997 for this set.

Could you please report measured inhibition for the items listed next?
# EXPERIMENTAL_SYSTEM: Glucose transporter (Leishmania mexicana)
# METHOD_NOTES: ST_JUDE_LEISH: Cytotoxicity at 2uM final concentration against transgenic Leishmania Mexicana promastigotes LmGT2 that are glucose transport deficient and complemented with the L. Mexicana glucose transporter 2. Activity is measured by DNA content using SYBR green in vitro
# Type: functional
API: value field is a number in %; no unit string.

Query: Look up inhibition: CCC(C)CNC(=O)CN1CN(c2ccccc2)C2(CCN(C(=O)c3ccc(Br)cc3)CC2)C1=O (stereo not given)
Result: 0.82

Query: Look up inhibition: CC(O)C1CCCCN1C(=O)c1cccc(-c2ccc(-c3nc4cc(F)ccc4[nH]3)cc2)c1 (stereo not given)
Result: 4.37

Query: Look up inhibition: COc1ccc(C(=O)Nc2ccc3nc(N4CCCCC4)cc(C)c3c2)cc1[N+](=O)[O-]
Result: 2

Query: Look up inhibition: Cc1noc(C)c1-c1ccc(C(=C2CCCCCC2)c2ccc(O)cc2)cc1
Result: 4.06

Query: Look up inhibition: O=C(Nc1ccc(Cl)cc1)c1ccc(CN2CCCN(Cc3ccccc3)CC2)cc1
Result: 1.45

====

# EXPERIMENTAL_SYSTEM: Glucose transporter (Leishmania mexicana)
# METHOD_NOTES: ST_JUDE_LEISH: Cytotoxicity at 2uM final concentration against transgenic Leishmania Mexicana promastigotes LmGT2 that are glucose transport deficient and complemented with the L. Mexicana glucose transporter 2. Activity is measured by DNA content using SYBR green in vitro
# Type: functional
Label met when inhibition >= 2%; otherwise not met.

Query: Does the molecule COc1ccc(C=NN=c2cc[nH]c3ccccc23)c2ccccc12 have recorded inhibition that is 2% or more?
Result: met

Query: Does the molecule Cc1ccc(NC(=O)c2ccc3ncccc3c2)cc1OC1CCN(Cc2ccco2)C1 (stereo not given) have recorded inhibition that is 2% or more?
Result: not met

Query: Does the molecule CCOc1cccc(C(=O)Nc2cccc(CN3CCCN(Cc4cccc(O)c4)CC3)c2)c1 have recorded inhibition that is 2% or more?
Result: met

Query: Does the molecule COc1ccc(CN(C)CCOc2ccc(NC(=O)c3cccc4c(=O)cc(-c5ccccc5)[nH]c34)cc2)cc1OC have recorded inhibition that is 2% or more?
Result: not met

Query: Does the molecule CC(C)CN(Cc1c(O)ccc2[nH]c(-c3ccc(F)cc3F)nc12)CC(C)C have recorded inhibition that is 2% or more?
Result: met

Query: Does the molecule CCCCCCCCCCNCC(O)c1ccc(O)c(C(=O)OC)c1 (stereo not given) have recorded inhibition that is 2% or more?
Result: not met

Query: Does the molecule O=C(Nc1ccc(N2CCCCC2)c(Cl)c1)c1nc[nH]n1 have recorded inhibition that is 2% or more?
Result: not met

Query: Does the molecule Cc1cc(C)cc(-n2c(C)cc(/C=C3\SC(=Nc4ccc(Cl)cc4)NC3=O)c2C)c1 have recorded inhibition that is 2% or more?
Result: not met

Query: Does the molecule Cc1cc(N(C)CCCN(C)C)nc(Nc2ccc(Br)cc2)n1 have recorded inhibition that is 2% or more?
Result: met

Query: Does the molecule COc1cc2nc(Nc3ccc(C)cc3)nc(Nc3ccc(C)cc3)c2cc1OC have recorded inhibition that is 2% or more?
Result: met

====

Could you please report measured inhibition for the items listed next?
# EXPERIMENTAL_SYSTEM: Solute carrier family 2, facilitated glucose transporter member 1 (Homo sapiens)
# METHOD_NOTES: ST_JUDE_LEISH: Cytotoxicity at 2uM final concentration against transgenic Leishmania Mexicana promastigotes LmGLUT1 that are glucose transport deficient and complemented with the human glucose transporter GLUT1. Activity is measured by DNA content using SYBR green in vitro
# Format: functional
API: value field is a number in %; no unit string.

Query: # returns recorded inhibition (system: Solute carrier family 2, facilitated glucose transporter member 1 (Homo sapiens)) for CN(C(=O)c1ccccc1)C1c2cc(C#N)ccc2OC(C)(C)C1O (stereo not given)
Result: 0.42

Query: # returns recorded inhibition (system: Solute carrier family 2, facilitated glucose transporter member 1 (Homo sapiens)) for Cn1nc(-c2cccc(CNC3CCc4ccccc43)c2)c2cnc(NC3CCCC3)nc21 (stereo not given)
Result: 2.84

Query: # returns recorded inhibition (system: Solute carrier family 2, facilitated glucose transporter member 1 (Homo sapiens)) for CCCCNc1cc(C)nc(NCc2ccccc2)n1
Result: 22.1

Query: # returns recorded inhibition (system: Solute carrier family 2, facilitated glucose transporter member 1 (Homo sapiens)) for Cc1ccc(-c2nnc(Nc3ccc(CC(N)=O)cc3)c3ccccc23)cc1S(=O)(=O)NCC1CCCO1 (stereo not given)
Result: 6.25

Query: # returns recorded inhibition (system: Solute carrier family 2, facilitated glucose transporter member 1 (Homo sapiens)) for COc1cccc(C2CCCN(CCCCNC(=O)c3ccc(NC(=O)c4ccc(Cl)cc4)cc3)C2)c1 (stereo not given)
Result: 2.97

====

# EXPERIMENTAL_SYSTEM: Hexose transporter 1 (Plasmodium falciparum)
# METHOD_NOTES: ST_JUDE_LEISH: Cytotoxicity at 2uM final concentration against transgenic Leishmania Mexicana promastigotes LmPfHT that are glucose transport deficient and complemented with the Plasmodium falciparum hexose transporter. Activity is measured by DNA content using SYBR green in vitro
# Assay type: functional
Could you please report measured inhibition for the items listed next?

Query: # returns recorded inhibition (system: Hexose transporter 1 (Plasmodium falciparum)) for C[C@@H]1CC[C@H](NC(=O)[C@H](CC2CCCC2)NC(=O)N2CCNCC2)C(=O)CN1S(=O)(=O)c1ccccn1
Result: 0.17%

Query: # returns recorded inhibition (system: Hexose transporter 1 (Plasmodium falciparum)) for COc1ccc2nccc(NCC3(O)CCN(CCc4ccc5c(c4)OCCO5)CC3)c2n1
Result: 4.58%

Query: # returns recorded inhibition (system: Hexose transporter 1 (Plasmodium falciparum)) for c1ccc2c(CNc3nc(NCC4CCCCC4)nc4[nH]cnc34)cccc2c1
Result: 5.29%

Query: # returns recorded inhibition (system: Hexose transporter 1 (Plasmodium falciparum)) for CC1(C)NC(N)=NC(=N)N1OCCSc1ccc(Cl)c(Cl)c1
Result: 7.48%

Query: # returns recorded inhibition (system: Hexose transporter 1 (Plasmodium falciparum)) for O=c1cc(NCCCNC2CCOc3c(Cl)cccc32)[nH]c2ccccc12 (centres undefined)
Result: 1.67%

Query: # returns recorded inhibition (system: Hexose transporter 1 (Plasmodium falciparum)) for O=C(NC1CCN(c2ccnc3cc(Cl)ccc23)C1)c1ccc(C(F)(F)F)cc1 (centres undefined)
Result: 3.66%

Query: # returns recorded inhibition (system: Hexose transporter 1 (Plasmodium falciparum)) for CCn1cc(CN2C(=O)C(c3ccccc3)(c3ccccc3)N=C2N)cn1
Result: 2%

Query: # returns recorded inhibition (system: Hexose transporter 1 (Plasmodium falciparum)) for COc1ccc(CNc2cc(C)nc3sc4c(c23)CCC2(C4)OCCO2)cc1
Result: 1.85%

Query: # returns recorded inhibition (system: Hexose transporter 1 (Plasmodium falciparum)) for CCc1ccccc1OCCCON1C(=N)N=C(N)NC1(C)C
Result: 37.9%

====

# EXPERIMENTAL_SYSTEM: Solute carrier family 2, facilitated glucose transporter member 1 (Homo sapiens)
# METHOD_NOTES: ST_JUDE_LEISH: Cytotoxicity at 2uM final concentration against transgenic Leishmania Mexicana promastigotes LmGLUT1 that are glucose transport deficient and complemented with the human glucose transporter GLUT1. Activity is measured by DNA content using SYBR green in vitro
# Format: functional
OBSERVED_PROPERTY: inhibition (%)
API: value field is a number in %; no unit string.

Query: Look up inhibition: COc1c(C2CCN(CCCCNC(=O)c3ccc(-c4ccc(C#N)cc4)cc3)CC2)ccc2c1C(C)(C)CCC2(C)C
Result: 1.57

Query: Look up inhibition: CC(=O)Nc1ncc(C(=O)Nc2ccc(-c3cccc(-c4nc5cc(F)ccc5[nH]4)c3)cc2)s1
Result: 6.62

Query: Look up inhibition: COc1ccc(NC(=O)C2c3ccccc3C(=O)N(C3CCCC3)C2c2cccs2)c(OC)c1 (centres undefined)
Result: 1.15

Query: Look up inhibition: Cc1ccc2[nH]c(C)cc(=NN=Cc3cccc(Cl)c3)c2c1
Result: 2.87

Query: Look up inhibition: CC(=O)c1ccc(Nc2c(C(N)=O)cnc3cc(-c4c(C)noc4C)ccc23)cc1
Result: 8.14

Query: Look up inhibition: C=C(C)CSc1nc2c(c(=O)n1CCc1ccccc1)C1(CCCC1)Cc1ccccc1-2
Result: 5.95

Query: Look up inhibition: O=c1cc(NCCCNCc2cc3c(Cl)cccc3s2)[nH]c2ccccc12
Result: -1.61

Query: Look up inhibition: CC(CN1CCN(C)CC1)C(=O)Nc1ccc(-c2ccc(-c3nc4ccccc4[nH]3)s2)cc1 (centres undefined)
Result: 5.66

Query: Look up inhibition: O=C(NCC(CCN1CCC(c2c[nH]c3ccccc23)CC1)c1ccccc1)Nc1ccc(Cl)c(Cl)c1 (centres undefined)
Result: 5.74

Query: Look up inhibition: N#Cc1ccc(/C=C/C(=O)NCCCCCN2CCCN(C(=O)Nc3ccc(Cl)c(C(F)(F)F)c3)CC2)cc1
Result: 1.18

Query: Look up inhibition: CC(C)CNCc1ccc(-c2ccc(CN(CCCN3CCN(C)CC3)C(=O)/C=C/c3ccccc3)cc2)cc1
Result: 8.73

Query: Look up inhibition: NC(=O)C1CCN(Cc2cccc(-c3cccc(-c4nc5cc(F)ccc5[nH]4)c3)c2)CC1
Result: -0.94

Query: Look up inhibition: CCNc1cc(C(=O)N[C@@H](Cc2ccccc2)[C@H](O)CNC2(C)CCCCC2)cc(N2CCCCS2(=O)=O)c1
Result: 1.96

Query: Look up inhibition: Cc1cc(OCCN2CCCCC2)ccc1NC(=O)c1cccc2c(=O)n(Cc3ccc(Cl)cc3)cnc12
Result: 103

Query: Look up inhibition: CCCN(Cc1nnc(-c2ccco2)o1)C(=O)C1CCN(c2ncc(C(F)(F)F)cc2Cl)CC1
Result: 11.4

Query: Look up inhibition: CN(C)[C@@H]1C(O)=C(C(N)=O)C(=O)[C@@]2(O)C(O)=C3C(=O)c4c(O)ccc(C#Cc5ccccn5)c4C[C@H]3C[C@@H]12
Result: 1.83

Query: Look up inhibition: O=C(/C=C/c1ccc(Cl)c(Cl)c1)NCCCCCN1CCCN(C(=S)Nc2cccc(Cl)c2)CC1
Result: 0.6

Query: Look up inhibition: O=C(Nc1cccc(-c2cccc(-c3nc4cc(F)ccc4[nH]3)c2)c1)Nc1ccc2c(c1)OCO2
Result: 1.84

Query: Look up inhibition: Nc1cccc(CNCc2cccc(-c3csc(-c4nc5ccccc5[nH]4)c3)c2)c1
Result: 2.32

Query: Look up inhibition: CC(C)C[C@H](Nc1ccc(C#N)c2ccccc12)C(=O)NC(C)(C)C12CC3CC(CC(C3)C1)C2
Result: 4.34

Query: Look up inhibition: COC(=O)c1ccc2[nH]cc(C3CCN(CCC4CCN(C(=O)/C=C/c5ccc(Cl)c(Cl)c5)CC4)CC3)c2c1
Result: 6.59

Query: Look up inhibition: CCOC(=O)c1c(-c2ccccc2)nc2c(sc3ccccc32)c1O
Result: 5.5

Query: Look up inhibition: O=C(Nc1cccc(-c2ccc(-c3nc4cc(C(F)(F)F)ccc4[nH]3)s2)c1)c1ccncc1
Result: 8.37

Query: Look up inhibition: COc1cccc(C=NNc2cc(C)nc3c(OC)cccc23)c1
Result: 3.12

Query: Look up inhibition: Cc1cc(NC2CCN(Cc3ccccc3)CC2)nc(NCCCCc2ccccc2)n1
Result: 23.4

Query: Look up inhibition: Cc1ccccc1C1CCN(C2CCC(NC(=O)c3cc(-c4ccc(Cl)cc4)cs3)CC2)CC1 (centres undefined)
Result: 2.23

Query: Look up inhibition: CCC(Cc1cnc2nc(N)nc(N)c2n1)c1ccc(C(=O)N[C@@H](CCC(=O)O)C(=O)O)cc1 (some centres undefined)
Result: 11.9

Query: Look up inhibition: Cn1nc(C(F)(F)F)c(-c2ccc(F)cc2)c1NC(=O)Nc1ccc(F)cc1
Result: 3.38

Query: Look up inhibition: CCOC(=O)c1ccc(NCc2ccccn2)cc1
Result: 3.11
